measured.on: Nav 1.7 (Homo sapiens (Human))
assay.summary: Nav 1.7 in vitro assay, IonWorks Quattro (IWQ) population patch-clamp
Type: cell-based
reported.conditions: HEK 293 cells stably transfected with Nav 1.7; 26th pulse to -20 mV
Below is a list of entries, each paired with its recorded IC50 value.

[
  {
    "compound": "O=S(=O)(Nc1nccs1)c1ccc2c(c1)OCCN2c1ccc(Cl)c(Cl)c1 [Example 74, 2,2,2-Trifluoroacetate]",
    "IC50 (nM)": 5240
  },
  {
    "compound": "O=S(=O)(Nc1nccs1)c1ccc2c(c1)OCCN2Cc1ccccc1",
    "IC50 (nM)": 864
  },
  {
    "compound": "CC1COc2cc(S(=O)(=O)Nc3nccs3)ccc2N1c1ccc(C(F)(F)F)cc1C#N (racemic)",
    "IC50 (nM)": 823
  },
  {
    "compound": "COc1ccc(F)cc1N1CCOc2cc(S(=O)(=O)Nc3nccs3)ccc21",
    "IC50 (nM)": 13.5
  },
  {
    "compound": "COc1ncc(Cl)cc1N1CCOc2cc(S(=O)(=O)Nc3nccs3)ccc21",
    "IC50 (nM)": 33.5
  },
  {
    "compound": "O=S(=O)(Nc1nccs1)c1ccc2c(c1)OCCN2c1cccc2c1OC(F)(F)O2",
    "IC50 (nM)": 263
  },
  {
    "compound": "O=S(=O)(Nc1nccs1)c1ccc2c(c1)OCCN2c1ncc(F)cc1F",
    "IC50 (nM)": 2980
  },
  {
    "compound": "CC1CN(c2ccc(C(F)(F)F)cc2C#N)c2ccc(S(=O)(=O)Nc3nccs3)cc2O1 (racemic)",
    "IC50 (nM)": 78.5
  }
]

---

Below is a list of entries, each paired with its recorded pIC50 value.
measured.on: Nav 1.7 (Homo sapiens (Human), UniProt Q15858)
Sequence (Q15858 whole entry): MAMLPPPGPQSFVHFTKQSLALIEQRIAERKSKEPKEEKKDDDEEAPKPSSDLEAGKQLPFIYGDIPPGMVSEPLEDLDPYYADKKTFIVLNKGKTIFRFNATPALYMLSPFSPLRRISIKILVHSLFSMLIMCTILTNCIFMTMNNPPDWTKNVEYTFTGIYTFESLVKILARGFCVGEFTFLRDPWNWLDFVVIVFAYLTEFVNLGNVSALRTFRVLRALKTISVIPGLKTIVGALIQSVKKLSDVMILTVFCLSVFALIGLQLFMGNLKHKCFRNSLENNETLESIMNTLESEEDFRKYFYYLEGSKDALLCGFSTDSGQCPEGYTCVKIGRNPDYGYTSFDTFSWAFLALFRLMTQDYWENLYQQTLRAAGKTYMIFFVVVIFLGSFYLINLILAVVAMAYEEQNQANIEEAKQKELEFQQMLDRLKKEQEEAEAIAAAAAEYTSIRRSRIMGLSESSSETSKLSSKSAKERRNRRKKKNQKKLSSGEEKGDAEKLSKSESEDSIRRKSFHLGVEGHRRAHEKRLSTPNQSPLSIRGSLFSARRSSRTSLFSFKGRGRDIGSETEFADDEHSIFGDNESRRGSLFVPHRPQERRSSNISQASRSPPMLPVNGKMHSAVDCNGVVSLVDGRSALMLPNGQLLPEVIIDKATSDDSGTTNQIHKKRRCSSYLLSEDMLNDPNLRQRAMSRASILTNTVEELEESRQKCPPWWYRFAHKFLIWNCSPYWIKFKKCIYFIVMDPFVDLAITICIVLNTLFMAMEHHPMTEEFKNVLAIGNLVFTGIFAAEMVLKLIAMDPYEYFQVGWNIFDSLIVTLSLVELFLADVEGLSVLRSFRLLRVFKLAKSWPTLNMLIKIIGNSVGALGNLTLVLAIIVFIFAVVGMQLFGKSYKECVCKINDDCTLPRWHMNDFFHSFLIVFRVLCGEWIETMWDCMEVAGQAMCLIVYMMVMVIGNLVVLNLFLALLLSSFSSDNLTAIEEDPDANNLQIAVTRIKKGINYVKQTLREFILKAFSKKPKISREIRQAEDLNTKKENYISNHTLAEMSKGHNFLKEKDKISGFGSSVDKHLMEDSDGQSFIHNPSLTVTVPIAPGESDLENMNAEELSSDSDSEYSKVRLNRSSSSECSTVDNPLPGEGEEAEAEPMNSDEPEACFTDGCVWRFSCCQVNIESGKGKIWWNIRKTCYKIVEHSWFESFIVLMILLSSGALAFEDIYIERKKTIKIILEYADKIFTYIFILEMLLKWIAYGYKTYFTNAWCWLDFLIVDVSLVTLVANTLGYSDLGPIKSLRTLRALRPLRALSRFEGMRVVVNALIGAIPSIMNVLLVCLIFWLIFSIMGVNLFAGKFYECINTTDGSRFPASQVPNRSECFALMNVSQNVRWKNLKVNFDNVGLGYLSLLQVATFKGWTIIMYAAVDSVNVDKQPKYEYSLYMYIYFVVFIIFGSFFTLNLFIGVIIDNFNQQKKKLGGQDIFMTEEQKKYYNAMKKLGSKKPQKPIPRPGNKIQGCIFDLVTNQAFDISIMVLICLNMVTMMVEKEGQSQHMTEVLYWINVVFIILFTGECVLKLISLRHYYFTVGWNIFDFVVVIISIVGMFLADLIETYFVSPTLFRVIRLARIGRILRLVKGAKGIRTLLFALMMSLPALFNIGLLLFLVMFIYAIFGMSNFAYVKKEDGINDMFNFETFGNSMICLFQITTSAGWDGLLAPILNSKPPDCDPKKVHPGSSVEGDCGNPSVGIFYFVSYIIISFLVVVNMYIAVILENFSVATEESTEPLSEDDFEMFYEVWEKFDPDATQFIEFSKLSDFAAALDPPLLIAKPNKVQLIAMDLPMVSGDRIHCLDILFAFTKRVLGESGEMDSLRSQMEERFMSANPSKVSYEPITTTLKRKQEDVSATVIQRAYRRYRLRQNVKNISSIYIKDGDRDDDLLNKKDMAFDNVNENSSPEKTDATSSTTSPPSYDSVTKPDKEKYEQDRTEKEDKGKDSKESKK
assay.summary: Nav 1.7 in vitro PX assay, PatchXpress whole cell voltage clamp
Type: cell-based
reported.conditions: HEK 293 cells stably transfected with human Nav1.7; partially inactivated state (20 to 50% inactivation)
pIC50: −log10 of the molar value.

[
  {
    "compound": "NCc1nsc(NS(=O)(=O)c2ccc3c(c2)OCCN3c2ccc(C(F)(F)F)cc2Cl)n1 [Example 8, 2,2,2-Trifluoroacetate]",
    "pIC50": 4.80
  },
  {
    "compound": "N#Cc1ccc(C(F)(F)F)cc1N1CCOc2cc(S(=O)(=O)Nc3nccs3)ccc21 [Example 184]",
    "pIC50": 6.41
  },
  {
    "compound": "O=S(=O)(Nc1nccs1)c1ccc2c(c1)OCCN2c1ccc(Cl)cc1F [Example 170, 2,2,2-Trifluoroacetate]",
    "pIC50": 5.58
  },
  {
    "compound": "COc1cc(C#N)ccc1N1CC(C)Oc2cc(S(=O)(=O)Nc3nccs3)ccc21 (racemic) [Example 106]",
    "pIC50": 6.54
  },
  {
    "compound": "COc1ccncc1N1CCOc2cc(S(=O)(=O)Nc3nccs3)ccc21 [Example 190]",
    "pIC50": 5.29
  },
  {
    "compound": "O=S(=O)(Nc1ccncn1)c1ccc2c(c1)OCCN2c1ccc(C(F)(F)F)cc1Cl [Example 32]",
    "pIC50": 6.27
  },
  {
    "compound": "N#Cc1cc(N2CCOc3cc(S(=O)(=O)Nc4nccs4)ccc32)ccc1F [Example 175, 2,2,2-Trifluoroacetate]",
    "pIC50": 5.86
  }
]

---

measured.on: Nav 1.7 (Homo sapiens (Human), UniProt Q15858)
assay.summary: Nav 1.7 in vitro PX assay, PatchXpress whole cell voltage clamp
Type: cell-based
reported.conditions: HEK 293 cells stably transfected with human Nav1.7; partially inactivated state (20 to 50% inactivation)
Method: Nav 1.7 In Vitro PX Assay HEK 293 cells stably transfected with human Nav1.7 were recorded in whole cell voltage clamp mode with the PatchXpress automated electrophysiology system (Molecular Devices, LLC, Sunnyvale, Calif.). Compound effects were measured on a partially inactivated state of the sodium channel. Cells were clamped to a holding potential yielding 20 to 50% inactivation. […] Peak sodium current was measured at the end of the compound addition period to determine percent inhibition. […]
pIC50: −log10 of the molar value.
Below is a list of entries, each paired with its recorded pIC50 value.

[
  {
    "compound": "COc1cc(C#N)ccc1N1C(=O)COc2cc(S(=O)(=O)Nc3nccs3)ccc21",
    "measured.on": "Nav 1.7 (Homo sapiens (Human), UniProt Q15858)",
    "pIC50": 5.70
  },
  {
    "compound": "O=C1COc2cc(S(=O)(=O)Nc3nccs3)ccc2N1c1ccc(C(F)(F)F)cc1F",
    "measured.on": "Nav 1.7 (Homo sapiens (Human), UniProt Q15858)",
    "pIC50": 4.92
  },
  {
    "compound": "O=S(=O)(Nc1nccs1)c1ccc2c(c1)OCCN2c1ccccc1C1=CCNCC1 [Example 59, 2,2,2-Trifluoroacetate]",
    "measured.on": "Nav 1.7 (Homo sapiens (Human), UniProt Q15858)",
    "pIC50": 6.60
  },
  {
    "compound": "Cc1cc(C#N)cc(N2CCOc3cc(S(=O)(=O)Nc4nccs4)ccc32)c1",
    "measured.on": "Nav 1.7 (Homo sapiens (Human), UniProt Q15858)",
    "pIC50": 5.57
  },
  {
    "compound": "Cc1ccc(N2CCOc3cc(S(=O)(=O)Nc4nccs4)ccc32)cc1C#N",
    "measured.on": "Nav 1.7 (Homo sapiens (Human), UniProt Q15858)",
    "pIC50": 5.25
  },
  {
    "compound": "O=S(=O)(Nc1nccs1)c1ccc2c(c1)OCCN2c1cccc2cccnc12 [Example 166, 2,2,2-Trifluoroacetate]",
    "measured.on": "Nav 1.7 (Homo sapiens (Human), UniProt Q15858)",
    "pIC50": 4.95
  },
  {
    "compound": "O=S(=O)(Nc1nccs1)c1ccc2c(c1)OCCN2c1cccc(OC(F)F)c1 [Example 172, 2,2,2-Trifluoroacetate]",
    "measured.on": "Nav 1.7 (Homo sapiens (Human), UniProt Q15858)",
    "pIC50": 6.03
  },
  {
    "compound": "O=S(=O)(Nc1nccs1)c1ccc2c(c1)OCCN2c1cc(Cl)ccc1Cl [Example 180, 2,2,2-Trifluoroacetate]",
    "measured.on": "Nav 1.7 (Homo sapiens (Human), UniProt Q15858)",
    "pIC50": 6.07
  },
  {
    "compound": "O=S(=O)(Nc1nccs1)c1ccc2c(c1)OCCN2c1cncc(Cl)c1",
    "measured.on": "Nav 1.7 (Homo sapiens (Human), UniProt Q15858)",
    "pIC50": 5.28
  },
  {
    "compound": "O=S(=O)(Nc1nccs1)c1ccc2c(c1)OCCN2c1ccc(C(F)(F)F)cn1",
    "measured.on": "Nav 1.7 (Homo sapiens (Human), UniProt Q15858)",
    "pIC50": 5.48
  },
  {
    "compound": "N#Cc1ccccc1N1CCOc2cc(S(=O)(=O)Nc3ncns3)ccc21",
    "measured.on": "Nav 1.7 (Homo sapiens (Human), UniProt Q15858)",
    "pIC50": 5.71
  },
  {
    "compound": "COc1ccc(C#N)cc1N1CCOc2cc(S(=O)(=O)Nc3nccs3)ccc21",
    "measured.on": "Nav 1.7 (Homo sapiens (Human), UniProt Q15858)",
    "pIC50": 6.52
  },
  {
    "compound": "O=S(=O)(Nc1ccon1)c1ccc2c(c1)OCCN2c1ccc(C(F)(F)F)cc1Cl",
    "measured.on": "Nav 1.7 (Homo sapiens (Human), UniProt Q15858)",
    "pIC50": 5.29
  },
  {
    "compound": "CS(=O)(=O)c1ccccc1N1CCOc2cc(S(=O)(=O)Nc3nccs3)ccc21",
    "measured.on": "Nav 1.7 (Homo sapiens (Human), UniProt Q15858)",
    "pIC50": 4.47
  },
  {
    "compound": "CN1CCN(c2cc(C(F)(F)F)ccc2N2CCOc3cc(S(=O)(=O)Nc4nccs4)ccc32)CC1 [Example 50, 2,2,2-Trifluoroacetate]",
    "measured.on": "Nav 1.7 (Homo sapiens (Human), UniProt Q15858)",
    "pIC50": 6.50
  },
  {
    "compound": "COc1cc(F)ccc1N1CCOc2cc(S(=O)(=O)Nc3nccs3)ccc21",
    "measured.on": "Nav 1.7 (Homo sapiens (Human), UniProt Q15858)",
    "pIC50": 6.72
  },
  {
    "compound": "Cc1cc(N2CCOc3cc(S(=O)(=O)Nc4nccs4)ccc32)ccc1Cl [Example 156, 2,2,2-Trifluoroacetate]",
    "measured.on": "Nav 1.7 (Homo sapiens (Human), UniProt Q15858)",
    "pIC50": 5.59
  },
  {
    "compound": "Cc1cc(N2CCOc3cc(S(=O)(=O)Nc4nccs4)ccc32)ccc1C#N",
    "measured.on": "Nav 1.7 (Homo sapiens (Human), UniProt Q15858)",
    "pIC50": 5.31
  },
  {
    "compound": "COc1cc(C(F)(F)F)ccc1N1CCOc2cc(S(=O)(=O)Nc3nccs3)c(C#N)cc21",
    "measured.on": "Nav 1.7 (Homo sapiens (Human), UniProt Q15858)",
    "pIC50": 6.34
  },
  {
    "compound": "C[C@@H]1CN(c2ccc(C(F)(F)F)cc2C#N)c2ccc(S(=O)(=O)Nc3nccs3)cc2O1 (single isomer, unassigned)",
    "measured.on": "Nav 1.7 (Homo sapiens (Human), UniProt Q15858)",
    "pIC50": 6.53
  },
  {
    "compound": "N#Cc1cc(C(F)(F)F)ccc1N1CCOc2cc(S(=O)(=O)Nc3nccs3)c(F)cc21",
    "measured.on": "Nav 1.7 (Homo sapiens (Human), UniProt Q15858)",
    "pIC50": 6.74
  },
  {
    "compound": "COc1ccccc1N1C(=O)COc2cc(S(=O)(=O)Nc3nccs3)ccc21",
    "measured.on": "Nav 1.7 (Homo sapiens (Human), UniProt Q15858)",
    "pIC50": 6.05
  },
  {
    "compound": "O=S(=O)(Nc1nccs1)c1ccc2c(c1)OCCN2c1ccc(C(F)(F)F)cc1CCO",
    "measured.on": "Nav 1.7 (Homo sapiens (Human), UniProt Q15858)",
    "pIC50": 6.64
  },
  {
    "compound": "COc1cc(C(F)(F)F)ccc1N1C(=O)[C@@H](C)Oc2cc(S(=O)(=O)Nc3nccs3)ccc21",
    "measured.on": "Nav 1.7 (Homo sapiens (Human), UniProt Q15858)",
    "pIC50": 6.14
  },
  {
    "compound": "O=S(=O)(Nc1nccs1)c1ccc2c(c1)OCCN2c1ccc(-n2cccn2)cc1",
    "measured.on": "Nav 1.7 (Homo sapiens (Human), UniProt Q15858)",
    "pIC50": 5.19
  },
  {
    "compound": "O=S(=O)(Nc1nccs1)c1ccc2c(c1)OCCN2c1cccc(Cl)c1",
    "measured.on": "Nav 1.7 (Homo sapiens (Human), UniProt Q15858)",
    "pIC50": 6.19
  },
  {
    "compound": "COc1cc(C#N)ccc1N1C[C@@H](C)Oc2cc(S(=O)(=O)Nc3nccs3)ccc21 (single isomer, unassigned)",
    "measured.on": "Nav 1.7 (Homo sapiens (Human), UniProt Q15858)",
    "pIC50": 6.52
  },
  {
    "compound": "O=S(=O)(Nc1ccncn1)c1ccc2c(c1)OCCN2c1ccc(C(F)(F)F)cc1C1=CCNCC1 [Example 45, 2,2,2-Trifluoroacetate]",
    "measured.on": "Nav 1.7 (Homo sapiens (Human), UniProt Q15858)",
    "pIC50": 6.87
  },
  {
    "compound": "N#Cc1cc(-c2cccc(F)c2)ccc1N1CCOc2cc(S(=O)(=O)Nc3nccs3)ccc21",
    "measured.on": "Nav 1.7 (Homo sapiens (Human), UniProt Q15858)",
    "pIC50": 6.82
  },
  {
    "compound": "COc1cc(C(F)(F)F)ccc1N1C(=O)C(C)Oc2cc(S(=O)(=O)Nc3nccs3)ccc21 (racemic)",
    "measured.on": "Nav 1.7 (Homo sapiens (Human), UniProt Q15858)",
    "pIC50": 6.34
  },
  {
    "compound": "O=S(=O)(Nc1nccs1)c1ccc2c(c1)OCCN2c1ccccc1-c1ccncc1",
    "measured.on": "Nav 1.7 (Homo sapiens (Human), UniProt Q15858)",
    "pIC50": 5.70
  }
]
